target entity: HSV-1 thymidine kinase (TK) (Human herpesvirus 1, UniProt P0DTH5)
Sequence (P0DTH5 whole entry): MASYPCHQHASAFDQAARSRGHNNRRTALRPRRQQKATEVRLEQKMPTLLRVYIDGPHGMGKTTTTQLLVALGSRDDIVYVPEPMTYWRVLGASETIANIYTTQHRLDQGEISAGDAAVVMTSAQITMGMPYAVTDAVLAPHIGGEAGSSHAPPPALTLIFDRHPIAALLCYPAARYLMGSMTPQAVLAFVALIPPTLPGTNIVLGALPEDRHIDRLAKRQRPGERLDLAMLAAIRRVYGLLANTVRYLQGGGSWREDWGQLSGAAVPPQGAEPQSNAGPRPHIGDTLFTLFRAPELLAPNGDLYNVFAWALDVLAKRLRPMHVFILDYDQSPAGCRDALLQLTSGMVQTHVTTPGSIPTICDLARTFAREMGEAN
protocol: Inhibition of HSV-1 thymidine kinase (3H-thymidine phosphorylation, DEAE-cellulose disc assay)
Format: biochemical
settings: 37° C., 30 minutes, pH 8, 3H-thymidine substrate; read-out: Activity against HSV-1 TK IC50 (nmol)
Procedure: In this test procedure, the assay mixture contains […] Tris HCl, pH 8, 5 mmol magnesium chloride, 5 mmol ATP, […] 3H-thymidine (50 Ci/mmol), suitably diluted enzyme preparation and various concentrations of test compounds in a total volume of […]. Assays are incubated at 37° C. for 30 minutes and the reaction is terminated by immersion in a boiling water bath for 2 minutes. […] The radioactivity remaining bound to the discs is then measured by scintillation spectrophotometry. […]
property measured: IC50 (nM)
Hi! Could you send only the number? It should be in nM, unit omitted.

See these solved cases before continuing.
CC1(C)CC(=O)C2=C(C1)NC1=C(C(=O)CC(C)(C)C1)C2c1ccc(Cl)c(-c2ccccc2)c1 | 0.52
CC1(C)CC(=O)C2=C(C1)NC1=C(C(=O)CC(C)(C)C1)C2c1ccc(Cl)c(-n2cccc2)c1 | 0.44

Please supply the value of reported IC50 for the item `CC1(C)CC(=O)C2=C(C1)NC1=C(C(=O)CC(C)(C)C1)C2c1ccc(Br)cc1`
12

###

target entity: HSV-2 thymidine kinase (TK) (Human herpesvirus 2)
Sequence (P04407 whole entry): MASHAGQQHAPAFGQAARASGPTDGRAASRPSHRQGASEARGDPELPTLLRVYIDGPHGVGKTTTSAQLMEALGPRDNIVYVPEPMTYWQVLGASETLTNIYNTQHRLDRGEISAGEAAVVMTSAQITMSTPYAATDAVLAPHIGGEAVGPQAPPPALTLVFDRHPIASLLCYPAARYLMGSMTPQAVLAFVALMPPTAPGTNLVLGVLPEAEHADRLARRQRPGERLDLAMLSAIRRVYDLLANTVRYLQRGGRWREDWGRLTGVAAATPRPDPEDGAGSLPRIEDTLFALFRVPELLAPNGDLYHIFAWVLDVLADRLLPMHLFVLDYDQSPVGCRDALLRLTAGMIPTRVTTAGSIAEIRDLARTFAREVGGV
protocol: Inhibition of HSV-2 thymidine kinase (3H-thymidine phosphorylation, DEAE-cellulose disc assay)
Format: biochemical
property measured: pIC50
Keep it numeric: pIC50 is minus log10 of the concentration in mol/L.

Please supply the value of reported pIC50 for the item CCc1cn([C@H]2C[C@H](O)[C@@H](CNC(=O)C3c4ccccc4Oc4ccccc43)O2)c(=O)[nH]c1=O [reference compound]
9.47

###

target entity: HSV-1 thymidine kinase (TK) (Human herpesvirus 1)
protocol: Inhibition of HSV-1 thymidine kinase (3H-thymidine phosphorylation, DEAE-cellulose disc assay)
Format: biochemical
settings: 37° C., 30 minutes, pH 8, 3H-thymidine substrate; read-out: Activity against HSV-1 TK IC50 (nmol)
The entries below come with measured IC50 values attached.
Hi! Could you send only the number? It should be in nM, unit omitted.

See these solved cases before continuing.
CC1(C)CC(=O)C2=C(C1)NC1=C(C(=O)CC(C)(C)C1)C2c1ccc(Cl)c(Oc2ccncc2)c1 [Compound I] | 0.8
CC1(C)CC(=O)C2=C(C1)NC1=C(C(=O)CC(C)(C)C1)C2c1ccc([N+](=O)[O-])c(OCc2ccccc2)c1 [J] | 0.9

Consider the record given below.
Please supply the value of reported IC50 for the item CC1(C)CC(=O)C2=C(C1)NC1=C(C(=O)CC(C)(C)C1)C2c1ccc(Cl)c(Oc2ccccc2)c1 [A]
0.3

###

target entity: HSV-2 thymidine kinase (TK) (Human herpesvirus 2)
protocol: Inhibition of HSV-2 thymidine kinase (3H-thymidine phosphorylation, DEAE-cellulose disc assay)
Format: biochemical
settings: 37° C., 30 minutes, pH 8, 3H-thymidine substrate; read-out: Activity against HSV-2 TK IC50 (nmol)
The entries below come with measured IC50 values attached.
Hi! Could you send only the number? It should be in nM, unit omitted.

See these solved cases before continuing.
CC1(C)CC(=O)C2=C(C1)NC1=C(C(=O)CC(C)(C)C1)C2c1ccc(Cl)c(Oc2ccncc2)c1 [Compound I] | 0.19
CC1(C)CC(=O)C2=C(C1)NC1=C(C(=O)CC(C)(C)C1)C2c1ccc(Cl)c(-c2ccccc2)c1 [C] | 0.27

State IC50 on HSV-2 thymidine kinase (TK) (Human herpesvirus 2). Entry: CC1(C)CC(=O)C2=C(C1)NC1=C(C(=O)CC(C)(C)C1)C2c1ccc(Cl)c(-n2cccc2)c1 [F]
0.18

State IC50 on HSV-2 thymidine kinase (TK) (Human herpesvirus 2). Entry: CC1(C)CC(=O)C2=C(C1)NC1=C(C(=O)CC(C)(C)C1)C2c1ccc(Cl)c(F)c1 [E]
0.44

State IC50 on HSV-2 thymidine kinase (TK) (Human herpesvirus 2). Entry: CC1(C)CC(=O)C2=C(C1)NC1=C(C(=O)CC(C)(C)C1)C2c1ccc(Cl)c(Sc2ccncc2)c1 [K]
0.54

State IC50 on HSV-2 thymidine kinase (TK) (Human herpesvirus 2). Entry: CC1(C)CC(=O)C2=C(C1)NC1=C(C(=O)CC(C)(C)C1)C2c1ccc(Cl)c(Cl)c1 [D]
0.64

State IC50 on HSV-2 thymidine kinase (TK) (Human herpesvirus 2). Entry: CC1(C)CC(=O)C2=C(C1)NC1=C(C(=O)CC(C)(C)C1)C2c1ccc([N+](=O)[O-])c(OCc2ccccc2)c1 [J]
0.38

###

target entity: HSV-1 thymidine kinase (TK) (Human herpesvirus 1, UniProt P0DTH5)
protocol: Inhibition of HSV-1 thymidine kinase (3H-thymidine phosphorylation, DEAE-cellulose disc assay)
Assay type: biochemical
property measured: pIC50
Keep it numeric: pIC50 is minus log10 of the concentration in mol/L.

Please supply the value of reported pIC50 for the item CCc1cn([C@H]2C[C@H](O)[C@@H](CNC(=O)C3c4ccccc4Oc4ccccc43)O2)c(=O)[nH]c1=O [reference compound]
8.38

###

target entity: HSV-1 thymidine kinase (TK) (Human herpesvirus 1)
protocol: Inhibition of HSV-1 thymidine kinase (3H-thymidine phosphorylation, DEAE-cellulose disc assay)
Type: biochemical
settings: 37° C., 30 minutes, pH 8, 3H-thymidine substrate; read-out: Activity against HSV-1 TK IC50 (nmol)
IC50 vs 6 nM: less than gives satisfied; not less than gives not satisfied.

Record excerpt, results attached:
CC1(C)CC(=O)C2=C(C1)NC1=C(C(=O)CC(C)(C)C1)C2c1cccc(Oc2ccccc2)c1 | satisfied
CC1(C)CC(=O)C2=C(C1)NC1=C(C(=O)CC(C)(C)C1)C2c1ccc(Cl)c(Cl)c1 | not satisfied
CC1(C)CC(=O)C2=C(C1)NC1=C(C(=O)CC(C)(C)C1)C2c1ccc(Cl)c(Sc2ccncc2)c1 | satisfied

Proceed to the following item.
Strictly below 6 nM: is that where IC50 of `CC1(C)CC(=O)C2=C(C1)NC1=C(C(=O)CC(C)(C)C1)C2c1ccc(Cl)c(Sc2ccccc2)c1` sits?
satisfied

###

target entity: HSV-2 thymidine kinase (TK) (Human herpesvirus 2)
protocol: Inhibition of HSV-2 thymidine kinase (3H-thymidine phosphorylation, DEAE-cellulose disc assay)
Format: biochemical
settings: 37° C., 30 minutes, pH 8, 3H-thymidine substrate; read-out: Activity against HSV-2 TK IC50 (nmol)
property measured: IC50 (nM)
Hi! Could you send only the number? It should be in nM, unit omitted.

See these solved cases before continuing.
CC1(C)CC(=O)C2=C(C1)NC1=C(C(=O)CC(C)(C)C1)C2c1ccc(Br)cc1 | 1.5
CC1(C)CC(=O)C2=C(C1)NC1=C(C(=O)CC(C)(C)C1)C2c1ccc(Cl)c(Sc2ccccc2)c1 | 0.12
CC1(C)CC(=O)C2=C(C1)NC1=C(C(=O)CC(C)(C)C1)C2c1cccc(Oc2ccccc2)c1 | 1.1

Consider the record given below.
Please supply the value of reported IC50 for the item `CC1(C)CC(=O)C2=C(C1)NC1=C(C(=O)CC(C)(C)C1)C2c1ccc(Cl)c(Oc2ccccc2)c1`
0.095
